ASSAY_OVERVIEW: chemical genetic growth profiling, strain panel (AID 1159580);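 note: tested at 20 µM; growth read once vehicle control cultures reached saturation at 30 °C; 1 = growth at the plate median or of vehicle wells; lower values mean less growth of the strain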
STUDY_CONDITIONS: S. cerevisiae deletion strains, growth OD, locus YJR043C, strain POL32
The campaign covered roughly 5,500 compounds. About 2,000 (36%) were called active. Not shown: some 18% with an inconclusive outcome. Cut-off read from the data, not from the text of the source: active = normalized growth mostly below about 0.91 (no sharp cut-off); inconclusive = no clear call, values can overlap the other calls; inactive = mostly above about 0.92. Some of the results follow.
Outcomes: true (1) for active, false (0) for inactive

{"COMPOUND": "CCCCCCCCCCCC1=C(O)C(=O)C=C(O)C1=O", "CATEGORY": "true (1)"}
{"COMPOUND": "COc1ccc(-c2cc(=O)c3c(O)cc(O[C@@H]4O[C@H](CO[C@H]5O[C@H](C)[C@@H](O)[C@H](O)[C@@H]5O)[C@@H](O)[C@H](O)[C@H]4O)cc3o2)cc1O", "CATEGORY": "false (0)"}
{"COMPOUND": "CC(=O)OCC1=C(C(=O)O)N2C(=O)[C@@H](NC(=O)Cc3cccs3)[C@H]2SC1", "CATEGORY": "false (0)"}
{"COMPOUND": "Cc1ccc(/C=C2\\CCc3ccccc3C2=O)o1", "CATEGORY": "true (1)"}
{"COMPOUND": "CCOC(=O)c1sc(SC(C)C)c2c1CCCC2=O", "CATEGORY": "false (0)"}
{"COMPOUND": "O=C1CC(Nc2ccccc2)C=C1Nc1ccccc1 (centres undefined)", "CATEGORY": "false (0)"}
{"COMPOUND": "CCC(c1ccc(O)cc1)C(CC)c1ccc(O)cc1 (centres undefined)", "CATEGORY": "false (0)"}
{"COMPOUND": "COc1ccccc1NC(=O)NCCSCc1ccccc1Cl", "CATEGORY": "false (0)"}
{"COMPOUND": "NC(N)=NC(=O)c1nc(Cl)c(N)nc1N", "CATEGORY": "false (0)"}
{"COMPOUND": "Cc1cc(OC(=O)c2c(C)cc(OC(=O)c3c(C)cc(O)cc3O)cc2O)cc(O)c1C(=O)O", "CATEGORY": "false (0)"}
{"COMPOUND": "CCCCCc1c2c(cc(O)c1C(=O)O)OC(=O)c1c(cc(OC)cc1C(=O)CCCC)O2", "CATEGORY": "false (0)"}
{"COMPOUND": "C=C1SC(Nc2cccc(C(F)(F)F)c2)=NC12CCCCC2", "CATEGORY": "false (0)"}
{"COMPOUND": "CCN(CC)C(=O)c1[nH]c(C)c(C)c1C", "CATEGORY": "false (0)"}
{"COMPOUND": "COc1ccc(-c2oc3cc(O[C@H]4O[C@H](CO)[C@@H](O)[C@H](O)[C@H]4O)c(OC)c(O)c3c(=O)c2OC)cc1O", "CATEGORY": "false (0)"}
{"COMPOUND": "O=C1NN=C2C3CC4CC12CC1(C3)C(=O)NN=C41", "CATEGORY": "false (0)"}
{"COMPOUND": "CC(=O)O[C@@H]1CC2C(C)(C)C(=O)C=C[C@]2(C)C2CC[C@@]3(C)[C@H](c4ccoc4)OC(=O)[C@H]4O[C@]43[C@@]21C (some centres undefined)", "CATEGORY": "false (0)"}
{"COMPOUND": "Cc1cc(C2CCCCC2)n(O)c(=O)c1", "CATEGORY": "true (1)"}
{"COMPOUND": "O=C1C=C2C(=CCOC2O)O1 (centres undefined)", "CATEGORY": "false (0)"}
{"COMPOUND": "O=c1cc(-c2ccc(O)cc2)oc2cc(O[C@@H]3O[C@H](CO)[C@@H](O)[C@H](O)[C@H]3O)cc(O)c12", "CATEGORY": "false (0)"}
{"COMPOUND": "NC(CSCSCC(N)C(=O)O)C(=O)O (centres undefined)", "CATEGORY": "false (0)"}
{"COMPOUND": "COc1ccc2c(c1)CCC1C2CC[C@@]2(C)C1CC[C@@H]2O (some centres undefined)", "CATEGORY": "true (1)"}
{"COMPOUND": "CCOC(=O)C1=C(N)Oc2ccc(Br)cc2C1C(C#N)C(=O)OCC (centres undefined)", "CATEGORY": "false (0)"}
{"COMPOUND": "COCCCNC(=S)N/N=C\\c1cccc(OC)c1O", "CATEGORY": "false (0)"}
{"COMPOUND": "CC(C)(C)NCC(O)c1cc(O)cc(O)c1 (centres undefined)", "CATEGORY": "false (0)"}
{"COMPOUND": "C[N+](C)(C)CC(O)CC(=O)O (centres undefined)", "CATEGORY": "false (0)"}
{"COMPOUND": "C[C@]12CCC3c4ccc(OS(=O)(=O)O)cc4CCC3C1CC[C@H]2O (some centres undefined)", "CATEGORY": "false (0)"}
{"COMPOUND": "NC(N)=NC(=O)c1nc(Cl)c(N2CCCCCC2)nc1N", "CATEGORY": "false (0)"}
{"COMPOUND": "CCC/C=C1\\OC(=O)C2=C1CCC=C2", "CATEGORY": "false (0)"}
{"COMPOUND": "COC(=O)[C@]1(C)CCC[C@]2(C)c3ccc(C(C)C)cc3C(=O)CC12 (some centres undefined)", "CATEGORY": "false (0)"}
{"COMPOUND": "CC1O[C@@H](Oc2c(-c3ccc(O)c(O)c3)oc3cc(O)cc(O)c3c2=O)[C@H](O)[C@H](O)[C@H]1O (some centres undefined)", "CATEGORY": "false (0)"}
{"COMPOUND": "COc1cccc2c(C)cc(=O)[nH]c12", "CATEGORY": "false (0)"}
{"COMPOUND": "COc1ccc2c(c1)CCC1C2CCC2(C)C1C[C@@H](O)C2O (some centres undefined)", "CATEGORY": "false (0)"}
{"COMPOUND": "CC(=O)Oc1ccc2c(c1C(C)C)CCC1C(C)(C)CCC[C@]21C (some centres undefined)", "CATEGORY": "false (0)"}
{"COMPOUND": "C=C[C@H]1CN2CC[C@H]1C[C@@H]2[C@@H](OC(=O)OCC)c1ccnc2ccc(OC)cc12", "CATEGORY": "false (0)"}
{"COMPOUND": "CN1C(C)(C)CCCC1(C)C", "CATEGORY": "false (0)"}
{"COMPOUND": "Cn1[nH]c(=O)cc1C(=O)NN", "CATEGORY": "false (0)"}
{"COMPOUND": "NC(=O)c1ncn([C@@H]2O[C@H](CO)[C@@H](O)[C@H]2O)n1", "CATEGORY": "false (0)"}
{"COMPOUND": "Cc1cc(C)c(CSCCNC(=O)Nc2ccc(F)cc2F)c(C)c1", "CATEGORY": "false (0)"}
{"COMPOUND": "CN1C[C@H](C(=O)N[C@]2(C)O[C@@]3(O)[C@@H]4CCCN4C(=O)[C@H](Cc4ccccc4)N3C2=O)C[C@@H]2c3cccc4[nH]cc(c34)C[C@H]21", "CATEGORY": "false (0)"}
{"COMPOUND": "CCCC(C)(COC(N)=O)COC(=O)NC(C)C (centres undefined)", "CATEGORY": "false (0)"}
{"COMPOUND": "CC(=O)OC(C)C[N+](C)(C)C (centres undefined)", "CATEGORY": "false (0)"}
{"COMPOUND": "Cc1[nH]ccc2c1[nH]c1cc(=O)ccc12", "CATEGORY": "false (0)"}
{"COMPOUND": "CC1(C)C=CC(=O)[C@@]2(C)C1CC(=O)[C@]1(C)C2CC[C@@]2(C)[C@H](c3ccoc3)OC(=O)C3OC321 (some centres undefined)", "CATEGORY": "false (0)"}
{"COMPOUND": "CCOC(=O)c1sc(S(C)(=O)=O)c2c1CCCC2O (centres undefined)", "CATEGORY": "false (0)"}
